Origin of values: paper PMC6753139

Biological target: TRIM66_(965-1160) N969A (human, UniProt O15016 965-1160, N969A)
Assay: ITC; MicroCal PEAQ-ITC, 25 °C, 20 mM Tris, 100 mM NaCl, pH 7.5; 0.7-4 mM peptide injected into the cell with 0.12 mM TRIM24-PHD-Bromo, 0.05 mM TRIM33 PHD-Bromo, or 0.05 or 0.11-[…] TRIM66-PHD-Bromo (or its mutants); single measurement, errors from the fitting curve
testReadout: pKd
Please express pKd as -log10 of the molar concentration.

Q) May I ask what pKd has been recorded for ARTKQTARKSTG (peptide, UniProt P68431 2-13, looked up, histone H3.1, Homo sapiens, residues 1-12; also called unH3_(1-12); unmodified H3_(1-12); source: synthetic peptide (GL Biochem)) [H3_(1-12) peptide] ?
A) 4.14
